Reference source for all entries: PubChem BioAssay

Assay: optical density change of DRC41 E. coli – strain DRC41, OD650, 24 h, E. coli filamentation project, primary screen (AID 1093);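 further: MC1000 strain lacking acrAB efflux and sulA so SOS filamentation is blocked; test concentration not given here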
Conditions: E. coli DRC41 growth, higher = more signal, called active from +8 up or from −8 down
Quick list: z-score per entry.
Simply state the number, no unit and no words.

Record excerpt, results attached:
compound	z-score
COCCOC(=O)N1C(=O)[C@@]2(c3cc(C#CC4(O)CCCCCC4)ccc31)[C@H](C(=O)N1CCN(c3ncccn3)CC1)[C@H]1C(=O)O[C@H](c3ccccc3)[C@H](c3ccccc3)N1[C@@H]2c1ccc(O)cc1	1.31
O=C1O[C@@H](c2ccccc2)[C@@H](c2ccccc2)N2[C@@H](c3ccc(O)cc3)[C@]3(C(=O)Nc4ccc(C#CC5=CCCCC5)cc43)[C@@H](C(=O)Nc3nc4ccccc4s3)[C@H]12	0.481
C[C@@]1([C@@H](NC(=O)c2cccs2)c2ccc(-c3ccccc3)cc2)C[C@H]1C1CCCCC1	-0.474
CCOC(=O)C1=CC[C@@H](c2ccccc2)N(S(=O)(=O)c2ccc(C)cc2)[C@H]1C=C(C)C	0.322
[N-]=[N+]=NCc1ccccc1C[C@]1(C(=O)NCCN2CCOCC2)COC(c2ccc(OCCCO)cc2)=N1	1.46

State the recorded z-score for this entry: CN1C(=O)C2C=CC(C(O)c3ccc(F)cc3)N(N3CCCCC3)C2C1=O (centres undefined)
-1.17

Data request, read-out z-score, for C=C(COC)C(=O)CC[C@H](OC(=O)c1ccccc1-c1ccccc1C(=O)O)c1ccc(CO)o1
0.229

Bench note: what z-score did CCCCC(CC)C(O)C1C=CC2C(=O)NC(=O)C2N1Nc1ccccn1 (centres undefined) show?
-0.828

Suppose we examine the compound COCCOC(=O)N1C(=O)[C@@]2(c3ccccc31)[C@H](c1ccc(OCCO)cc1)N1[C@H](c3ccccc3)[C@H](c3ccccc3)OC(=O)[C@H]1[C@@H]2C(=O)NC[C@H](O)c1ccccc1 ; what z-score value has been reported?
-0.0625

---

Assay: budding yeast growth modifiers under rapamycin – strain BY4716, OD600, 96 h, primary screen (AID 1091); further: test concentration not given here
Conditions: S. cerevisiae BY4716 + rapamycin, higher = more signal, called active from +8 up or from −8 down
I would appreciate it if you labelled entries yes when z-score is 0.05 or higher, otherwise no.

# example entries with known answers
molecule	cat
C=CCNC(=O)[C@H]1[C@@H]2C(=O)O[C@@H](c3ccccc3)[C@@H](c3ccccc3)N2[C@@H](c2ccc(OCCO)cc2)[C@]12C(=O)N(C(=O)OCCOC)c1ccc(C#CC3=CCCCC3)cc12	yes
CC(C)=CCCC(C)=CC(O)C1C=CC2C(=O)N(c3ccccc3)C(=O)C2N1Nc1ccc([N+](=O)[O-])cc1 (stereo not given)	yes
COc1ccc([Si](C)(C)[C@@H]2[C@@H](CCO)O[C@]3(C(=O)N(Cc4cccc(N5C(=O)COc6ccccc65)c4)c4ccccc43)[C@H]2C)cc1	yes
COCCOC(=O)N1C(=O)[C@@]2(c3cc(C#CCCO)ccc31)[C@H](c1ccc(OCCO)cc1)N1[C@H](c3ccccc3)[C@H](c3ccccc3)OC(=O)[C@H]1[C@@H]2C(=O)N1CCc2cc(OC)c(OC)cc2C1	yes
CCOC(=O)C1=CC[C@@H](c2cccc(Br)c2)N(S(=O)(=O)c2ccc(C)cc2)[C@H]1c1ccc([N+](=O)[O-])cc1	yes
CCCCC(=C=CC[C@H](O)c1cccc(OCCO)c1)C[C@H](O)COCc1ccccc1	no

Check the entry CN(C)CCCC[C@@H]1NC(=O)[C@H]2C[C@@H](C(=O)NCCCCCCNC(=O)CS)[C@@H](c3ccc(O)cc3)N2C1=O : does z-score equal or exceed 0.05?
no

Hello, I need to know if C=C(CCCC)/C(=C/C[C@@H](OC(=O)c1ccncc1)c1ccccc1OCCO)c1cc(C(=O)OC)ccc1OC has measured z-score not below 0.05. Thanks!
yes

Check this molecule for z-score at or above 0.05: O=C1OCCC=C[C@H]2OC34C=CCN(Cn5nnc6ccccc65)C(=O)[C@H]3N(CCCCCO)C(=O)[C@@H]4C12 (stereo not given in full)
no

---

Items are presented alongside their recorded composite z-score.
Target: Follistatin-related protein 3 (Homo sapiens) (UniProt O95633)
Sequence (O95633 whole entry, looked up): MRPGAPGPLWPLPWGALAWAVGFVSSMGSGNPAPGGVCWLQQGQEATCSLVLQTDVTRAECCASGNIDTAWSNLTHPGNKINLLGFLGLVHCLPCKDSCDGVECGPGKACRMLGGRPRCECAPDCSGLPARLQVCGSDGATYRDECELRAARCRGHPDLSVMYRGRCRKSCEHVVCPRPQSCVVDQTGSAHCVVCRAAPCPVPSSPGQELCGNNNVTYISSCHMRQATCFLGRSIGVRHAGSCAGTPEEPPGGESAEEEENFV
Assay: compounds binding follistatin-related protein 3 – biochemical, small-molecule microarray, 635 nm fluorescence, primary screen (AID 1105);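 further: score merges emission near 667 nm and signal to noise per printed spot across three slides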
Conditions: FSTL3 binding, higher = more signal

# example entries with known answers
compound	measValue
CC(C)CN1C(=O)[C@@]2(Cc3ccccc31)c1ccccc1C(=O)N(Cc1ccccc1)[C@H]2c1ccc(CO)cc1	0.554
CC(C)CCC[C@@H](C)[C@H]1CC[C@@]2(C)C3=C(CC[C@]12C)[C@@]1(C)CC[C@H](OC(=O)c2ccc(N)cc2)C(C)(C)C1CC3 (stereo not given in full)	0.587
COc1ccccc1CN1C(=O)c2ccccc2[C@@H](C(=O)NCC(C)C)[C@@H]1c1ccc(CO)cc1	0.0144

Look up composite z-score for this compound: CCCCC(=C=CC[C@H](O)c1ccccc1OCCO)C[C@H](O)c1ccccn1
0.549

Could you share which composite z-score value was measured for O=C(CS)NCCCCCNC(=O)[C@@H]1C[C@@H]2C(=O)N3CCC[C@H]3C(=O)N2[C@@H]1c1ccc(O)cc1 ?
0.0144

---

Recorded composite z-score by entry
Target: Alpha-bungarotoxin (Bungarus multicinctus) (UniProt P60615)
Sequence (P60615 whole entry, looked up): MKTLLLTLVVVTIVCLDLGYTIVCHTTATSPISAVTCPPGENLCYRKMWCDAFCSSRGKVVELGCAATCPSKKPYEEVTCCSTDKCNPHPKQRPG
Assay: compounds binding labelled alpha-BTX control protein – biochemical, small-molecule microarray, Alexa647 label, 635/667 nm fluorescence, artefact control for SMM control protein annotation, profiling panel (AID 1117)
Conditions: alpha-BTX-A647 binding fluorescence, higher = more signal
No unit in the answer, please; the number alone is enough.

Need composite z-score of C=CCN1C(=O)[C@@]2(O[C@@H](CCn3cc([C@H](O)c4ccccc4)nn3)[C@H]([Si](C)(C)c3ccc(OC)cc3)[C@H]2C)c2cc(NC(=O)c3ccc(OC)cc3)ccc21 , thanks.
0.627

Requested read-out: composite z-score. Entry: NC(=O)NCC#Cc1ccc2c(c1)[C@]1(C(=O)N2)[C@H](c2ccc(O)cc2)N2[C@H](c3ccccc3)[C@H](c3ccccc3)OC(=O)[C@H]2[C@@H]1C(N)=O
0.387

What value of composite z-score has been recorded for this entry: COCCCNC(=O)[C@@]1(C)c2ccccc2C(=O)N(c2ccc(C)cn2)[C@H]1c1ccc(CO)cc1
-1.65

So what does the record say about composite z-score for CN(C)C(=O)[C@]1(Cc2ccccc2N=[N+]=[N-])N=C(c2ccc(OCCCO)cc2)O[C@@H]1c1ccccc1CN=[N+]=[N-] ?
0.564

// query composite z-score value for entry C=CCNC(=O)[C@H]1[C@@H]2C(=O)O[C@@H](c3ccccc3)[C@@H](c3ccccc3)N2[C@@H](c2ccc(O)cc2)[C@]12C(=O)N(C(=O)OCCOC)c1ccc(C#CC3(O)CCCCCC3)cc12
1.2

Name the reported composite z-score value associated with the compound COC(=O)[C@@]1(Cc2ccc(OC)cc2)[C@H]2c3cc(C(=O)N(C)C)n(Cc4cc(F)c(F)c(F)c4)c3C[C@H]2CN1C(=O)c1ccccc1
1.86

I'd like to know its composite z-score. The compound in question is N#Cc1ccc(NN2C(C(O)c3ccccc3)C=CC3C(=O)N(c4ccccc4)C(=O)C32)cc1 (stereo not drawn)
0.153

Please look up its composite z-score: CCCC=C(CCC)[C@@H](NS(=O)(=O)c1ccccc1)c1ccc(C(F)(F)F)cc1
1.28

---

Each record here notes measured composite z-score.
Target: Carbonic anhydrase 2 (Homo sapiens) (UniProt P00918)
Assay: compounds binding carbonic anhydrase 2 – biochemical, small-molecule microarray, Alexa647-labelled CAII, profiling panel (AID 1122)
Details: CAII-A647 binding fluorescence, higher = more signal
Simply state the number, no unit and no words.

compound	composite z-score
CC(C)=CCCC(C)=CC(O)C1C=CC2C(=O)N(c3ccccc3)C(=O)C2N1Nc1ccc([N+](=O)[O-])cc1 (configuration not stated)	0.856
CC(C)C(CO)N1C(=O)[C@@H]2[C@H]3C(=O)OCC=C[C@H]3OC23C=CCN(CCN2CCOCC2)C(=O)[C@@H]13 (some centres not stated)	-0.111
O=C(O)[C@@]1(Cc2ccccc2)COC(c2ccc(OCCCO)cc2)=N1	0.844
O=C1C2C=CC(C(O)c3cccc4ccccc34)N(Nc3ccccc3)C2C(=O)N1c1ccccc1 (configuration not stated)	0.655
CC(C)(C)OC(=O)CC[C@@]1(C(=O)N2CCCCC2)N=C(c2ccc(OCCCO)cc2)O[C@@H]1c1ccccc1N=[N+]=[N-]	0.775

Which composite z-score value belongs to C=C[C@H](C)[C@H](OC(=O)Nc1ccc(SC)cc1)c1ccc(O)c2ccccc12 ?
0.736

Which composite z-score value is on record for COCCOC(=O)N1C(=O)[C@@]2(c3cc(C#CC4(O)CCCCCC4)ccc31)[C@H](C(=O)N1CCN(c3ncccn3)CC1)[C@H]1C(=O)O[C@H](c3ccccc3)[C@H](c3ccccc3)N1[C@@H]2c1ccc(O)cc1 ?
0.35

I'd like to know its composite z-score. The compound in question is CC(C)CNC(=O)[C@@]1(C)c2ccccc2C(=O)N(Cc2ccccc2)[C@H]1c1ccc(CO)cc1
0.788

May I ask what composite z-score has been recorded for O=C1NC(=O)C2C1C=CC(C(O)c1ccc3c(c1)OCO3)N2Nc1ccc(Cl)cc1Cl (configuration not stated) ?
0.566

Fill in the blank: the reported composite z-score of C=CCNC(=O)[C@H]1[C@@H]2C(=O)O[C@@H](c3ccccc3)[C@@H](c3ccccc3)N2[C@@H](c2ccc(OCCO)cc2)[C@]12C(=O)N(C(=O)OCCOC)c1ccc(C#CC3=CCCCC3)cc12 is ____.
0.643

Recorded composite z-score of C[N+](C)(C)CCCCCCNC(=O)[C@@H]1C[C@@H]2C(=O)NCC(=O)N2[C@@H]1c1ccc(O)cc1 , please.
0.618

Fill in the blank: the reported composite z-score of C=CCC(OC(C)=O)[C@@H]1[C@@H](N(Cc2cc3ccccc3o2)C(=O)Cc2ccc(OC)cc2)c2cc(OCCCO)ccc2N1C(=O)c1ccc(-c2ccccc2)cc1 (some centres not stated) is ____.
-0.137
